- System: T1, Histidine-tagged human 4-1BB protein (h4-1BB-His) (human, UniProt Q07011 24-186)
- T1 construct: not shown: histidine tag
- Test summary: SPR (Biacore T200), antibody on Protein A chip, h4-1BB-His injected;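 further: dissociation phase followed for 300 s, Kd derived as koff divided by kon from the kinetic fit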
Readout label: pKd
Please express pKd as -log10 of the molar concentration.

For 6A5-H1K4-IgG2 (antibody, V domains shown, humanized) VH: QVQLVQSGAEVKKPGSSVKLSCKASGYTFSSYWINWVRQAPGQGLEWMGNIYPSDSYTNYNQKFKDRVTLTVDKSTSTAYMELSSLRSEDTAVYYCTRTWEFYYDSVFDYWGQGTLVTVSS VL: DIQMTQSPSSLSASLGERVTITCKASQDINSYLSWFQQKPGKAPKTLIYRANRLVDGVPSRFSGSGSGQDYTLTISSLQPEDIATYYCLQYDELPPTFGGGTKLEIK , write its pKd.
9.49

For 6A5-H2K3-IgG2 (antibody, V domains shown, humanized) VH: QVQLVQSGAEVKKPGSSVKLSCKASGYTFSSYWINWVRQAPGQGLEWIGNIYPSDSYTNYNQKFKDRATLTVDKSTSTAYMELSSLRSEDTAVYYCTRTWEFYYDSVFDYWGQGTLVTVSS VL: DIQMTQSPSSLSASLGERVTITCKASQDINSYLSWFQQKPGKAPKTLIYRANRLVDGVPSRFSGSGSGQDFTLTISSLQPEDIATYYCLQYDELPPTFGGGTKVEIK , write its pKd.
9.66

For 5F9-H2K3-IgG4 (antibody, V domains shown, humanized) VH: QVQLKESGPGLVKPSETLSLTCTVSGFSLTTYDISWVRQPPGKGLEWLGVIWTGGGTNYNSSFMSRVTISKDTSKNQVSLKLSSVTAADTAIYYCERVDYWGQGTTVTVSS VL: DVVMTQSPLSLPVTLGQPASISCRSSQSLVHSNGNTYLHWYQQRPGQSPKLLIYKVSNRFSGVPDRFSGSGSGTAFTFKISRVEAEDVGVYYCSQNTHVPWTFGGGTKLEIK , write its pKd.
8.01
